Field: kon. Provide a value for each of the binders that follow.
- subject.of.test: T1, human-CD40 monomer (human, UniProt P25942 21-193, limits assumed)
- T1 construct: also called hCD40-monomer; human-CD40-monomer protein
- test.details: SPR 2 pt screen, Ab on protein A
Respond numerically; units are M⁻¹ s⁻¹ and should not be typed.

Input: // fetch kon given entry humanized Y1238 hz41 (hz-HC9 / hz-LC1), IgG1.3f (antibody, V domains shown, IgG1.3f heavy constant, common CL; expression supernatant; also called Sup 41) VH: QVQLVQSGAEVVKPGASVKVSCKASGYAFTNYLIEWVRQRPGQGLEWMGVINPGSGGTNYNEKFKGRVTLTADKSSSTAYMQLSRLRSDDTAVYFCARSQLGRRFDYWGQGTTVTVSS VL: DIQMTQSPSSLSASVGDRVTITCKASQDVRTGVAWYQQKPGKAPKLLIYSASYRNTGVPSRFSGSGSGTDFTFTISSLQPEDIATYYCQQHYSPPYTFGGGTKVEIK
Output: 38000

Input: // fetch kon given entry humanized Y1238 hz43 (hz-HC9 / hz-LC3), IgG1.3f (antibody, V domains shown, IgG1.3f heavy constant, common CL; expression supernatant; also called Sup 43) VH: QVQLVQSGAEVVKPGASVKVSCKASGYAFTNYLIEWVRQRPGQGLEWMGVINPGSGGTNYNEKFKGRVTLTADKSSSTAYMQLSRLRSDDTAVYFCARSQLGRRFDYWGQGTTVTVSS VL: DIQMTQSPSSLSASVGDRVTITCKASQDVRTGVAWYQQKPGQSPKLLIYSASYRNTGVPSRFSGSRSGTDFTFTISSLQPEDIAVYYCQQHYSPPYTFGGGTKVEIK
Output: 39000

Input: // fetch kon given entry humanized Y1238 hz42 (hz-HC9 / hz-LC2), IgG1.3f (antibody, V domains shown, IgG1.3f heavy constant, common CL; expression supernatant; also called Sup 42) VH: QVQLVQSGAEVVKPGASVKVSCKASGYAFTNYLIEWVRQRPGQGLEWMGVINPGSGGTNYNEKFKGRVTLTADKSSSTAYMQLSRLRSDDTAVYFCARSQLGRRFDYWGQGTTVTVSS VL: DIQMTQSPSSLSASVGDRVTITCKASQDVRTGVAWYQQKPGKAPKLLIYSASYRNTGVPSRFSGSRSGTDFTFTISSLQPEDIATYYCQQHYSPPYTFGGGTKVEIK
Output: 36000

Hello, the source for this data is patent US20220177596A1, in case you need it.
